Examples of molecules with documented Activity follow.
species: Rattus norvegicus; assay: Compound was tested for the production of depressor effects in rat; type: functional

>>> print(df.to_string())
                                   molecule  measurement_label  reported_measurement
0  Cc1cccc(NC(=O)OCC2C=CCN(C)C2)c1 (configuration not stated)           Activity              >2 µM/kg
1           Cc1cccc(NC(=O)OCC2=CCN(C)CC2)c1           Activity              >2 µM/kg
2  C[N+]1(C)CCC=C(COC(=O)Nc2cccc(Cl)c2)C1.[I-]           Activity              >2 µM/kg
3     C[N+]1(C)CC=C(COC(=O)Nc2cccc(Cl)c2)C1           Activity               3 µM/kg

Looking up "C[N+]1(C)CC=C(COC(=O)Nc2cccc(Cl)c2)CC1.Cc1ccc(S(=O)(=O)[O-])cc1" , I see its Activity listed as >2 µM/kg

Looking up "CN1CCC=C(COC(=O)Nc2ccccc2Cl)C1" , I see its Activity listed as >2 µM/kg

Looking up "CN1CCC(COC(=O)Nc2cccc(Cl)c2)CC1" , I see its Activity listed as 0.1 µM/kg

====

species: Rattus norvegicus; experiment: Compound was tested for the production of depressor effects in rat; type: functional
measurement-label: Activity

Solved cases below.
In [3]: df
Out[3]:
                            compound_string  reported_measurement
0  C[N+]1(C)CCC=C(COC(=O)Nc2ccc(Cl)cc2)C1.[I-]             0.1 µM/kg
1          CN1CCC=C(COC(=O)Nc2ccc(Cl)cc2)C1              >2 µM/kg
2          CN1CC=C(COC(=O)Nc2cccc(Cl)c2)CC1              >2 µM/kg

Looking up "CN1CC=C(COC(=O)Nc2ccc(Cl)cc2)CC1" , I see its Activity listed as >2 µM/kg

Looking up "CN1CCC=C(COC(=O)Nc2cccc(Cl)c2)C1" , I see its Activity listed as >2 µM/kg
